B1: C20orf112 (parent)
chain: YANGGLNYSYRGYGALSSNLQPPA

# Variants of: B1
# test_method_notes: protein stability index of a GFP-peptide fusion (GPS, HEK-293T) (PSI 1-6); higher = more stable;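 note: lentivirally expressed fusions sorted by FACS into six bins by GFP to DsRed ratio, PSI derived from sequencing read proportions per bin multiplied by bin number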
# particulars: c terminus: a fixed tail appended
measured_endpoint: protein stability index
When you answer, write just the number.

Task item: Entry under review: YANGGLNYSYRGYEALSSNLQPPA [G14E] . Reported protein stability index?
Reply: 2.45

Task item: Entry under review: YANGGTNYSYRGYGALSSNLQPPA [L6T] . Reported protein stability index?
Reply: 1.96

Task item: Entry under review: YANGGLNYSYRGQGALSSNLQPPA [Y13Q] . Reported protein stability index?
Reply: 2.13

Task item: Entry under review: YANEGLNYSYRGYGALSSNLQPPA [G4E] . Reported protein stability index?
Reply: 2.01

Task item: Entry under review: YANGGLNYGYRGYGALSSNLQPPA [S9G] . Reported protein stability index?
Reply: 1.88

Task item: Entry under review: YNNGGLNYSYRGYGALSSNLQPPA [A2N] . Reported protein stability index?
Reply: 2.3

Task item: Entry under review: YANGGLNYSYRGYKALSSNLQPPA [G14K] . Reported protein stability index?
Reply: 2.21

Task item: Entry under review: YANGGLNMSYRGYGALSSNLQPPA [Y8M] . Reported protein stability index?
Reply: 1.95

Task item: Entry under review: YANGGLNYSYRGYGLLSSNLQPPA [A15L] . Reported protein stability index?
Reply: 2.6

Task item: Entry under review: YANGGLNHSYRGYGALSSNLQPPA [Y8H] . Reported protein stability index?
Reply: 1.85

Task item: Entry under review: YINGGLNYSYRGYGALSSNLQPPA [A2I] . Reported protein stability index?
Reply: 2.1

Task item: Entry under review: YANGGLNYSYRGYGMLSSNLQPPA [A15M] . Reported protein stability index?
Reply: 1.49

Task item: Entry under review: YANGGLNISYRGYGALSSNLQPPA [Y8I] . Reported protein stability index?
Reply: 2.15

Task item: Entry under review: YRNGGLNYSYRGYGALSSNLQPPA [A2R] . Reported protein stability index?
Reply: 2.22

Task item: Entry under review: YANGGLNYSYRGYMALSSNLQPPA [G14M] . Reported protein stability index?
Reply: 2.18

Task item: Entry under review: YANGGLNYSYRGYGALSSNLQPQA [P23Q] . Reported protein stability index?
Reply: 1.77

Task item: Entry under review: YANGGLNYSYRGFGALSSNLQPPA [Y13F] . Reported protein stability index?
Reply: 2.5

Task item: Entry under review: YAVGGLNYSYRGYGALSSNLQPPA [N3V] . Reported protein stability index?
Reply: 2.08

Task item: Entry under review: YANGGLNYSFRGYGALSSNLQPPA [Y10F] . Reported protein stability index?
Reply: 1.5

Task item: Entry under review: YANGGLNYWYRGYGALSSNLQPPA [S9W] . Reported protein stability index?
Reply: 2.46

Task item: Entry under review: YANGWLNYSYRGYGALSSNLQPPA [G5W] . Reported protein stability index?
Reply: 2.37

Task item: Entry under review: YANGTLNYSYRGYGALSSNLQPPA [G5T] . Reported protein stability index?
Reply: 1.91

Task item: Entry under review: YANGGLNYSYRGYGRLSSNLQPPA [A15R] . Reported protein stability index?
Reply: 2.8

Task item: Entry under review: YANGGLNYSYRIYGALSSNLQPPA [G12I] . Reported protein stability index?
Reply: 2.72

Task item: Entry under review: YANGGLNYSYRGYGALSSNLQYPA [P22Y] . Reported protein stability index?
Reply: 3.09

Task item: Entry under review: YANHGLNYSYRGYGALSSNLQPPA [G4H] . Reported protein stability index?
Reply: 1.6

Task item: Entry under review: YANGGLNYSYRGYGAASSNLQPPA [L16A] . Reported protein stability index?
Reply: 2.11

Task item: Entry under review: YANGGLNYSYRGYGALSGNLQPPA [S18G] . Reported protein stability index?
Reply: 1.58

Task item: Entry under review: YANGGLNYSYRGYYALSSNLQPPA [G14Y] . Reported protein stability index?
Reply: 2.91

Task item: Entry under review: YANGGLNYSYRGYGALKSNLQPPA [S17K] . Reported protein stability index?
Reply: 1.94

Task item: Entry under review: DANGGLNYSYRGYGALSSNLQPPA [Y1D] . Reported protein stability index?
Reply: 2.9

Task item: Entry under review: YANGGLNYSYRGYGFLSSNLQPPA [A15F] . Reported protein stability index?
Reply: 2.68

Task item: Entry under review: YANGGLVYSYRGYGALSSNLQPPA [N7V] . Reported protein stability index?
Reply: 1.15

Task item: Entry under review: QANGGLNYSYRGYGALSSNLQPPA [Y1Q] . Reported protein stability index?
Reply: 3.32

Task item: Entry under review: YANGGLNYSGRGYGALSSNLQPPA [Y10G] . Reported protein stability index?
Reply: 1.5

Task item: Entry under review: YANGGLWYSYRGYGALSSNLQPPA [N7W] . Reported protein stability index?
Reply: 2.86

Task item: Entry under review: YANGGLHYSYRGYGALSSNLQPPA [N7H] . Reported protein stability index?
Reply: 3.47

Task item: Entry under review: YANGGLNCSYRGYGALSSNLQPPA [Y8C] . Reported protein stability index?
Reply: 2.22

Task item: Entry under review: YANVGLNYSYRGYGALSSNLQPPA [G4V] . Reported protein stability index?
Reply: 2.32
